Molecular target: 72 kDa type IV collagenase (Homo sapiens, UniProt P08253)
Sequence (P08253 whole entry, the tested form may be a part): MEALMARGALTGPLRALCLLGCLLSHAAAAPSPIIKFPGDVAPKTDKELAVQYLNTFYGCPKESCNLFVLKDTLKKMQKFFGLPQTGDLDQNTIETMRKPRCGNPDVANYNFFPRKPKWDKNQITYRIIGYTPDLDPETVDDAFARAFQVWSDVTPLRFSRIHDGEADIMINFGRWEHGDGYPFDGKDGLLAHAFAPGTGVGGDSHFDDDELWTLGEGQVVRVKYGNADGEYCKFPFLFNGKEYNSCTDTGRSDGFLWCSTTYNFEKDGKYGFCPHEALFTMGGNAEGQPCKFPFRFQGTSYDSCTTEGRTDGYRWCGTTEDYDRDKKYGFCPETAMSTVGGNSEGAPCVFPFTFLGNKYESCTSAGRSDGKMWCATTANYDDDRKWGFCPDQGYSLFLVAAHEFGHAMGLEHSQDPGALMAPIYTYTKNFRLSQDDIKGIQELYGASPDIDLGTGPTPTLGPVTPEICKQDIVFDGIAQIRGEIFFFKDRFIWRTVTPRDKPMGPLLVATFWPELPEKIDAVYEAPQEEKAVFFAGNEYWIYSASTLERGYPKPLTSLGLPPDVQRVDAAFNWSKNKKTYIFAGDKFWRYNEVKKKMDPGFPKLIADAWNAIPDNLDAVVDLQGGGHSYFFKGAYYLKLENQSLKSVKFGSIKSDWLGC
Test: inhibition of human recombinant MMP2 catalytic domain
pIC50: −log10 of the molar value.
MEASUREMENT LABEL: pIC50

(I) Cc1cc(COc2ccc(S(=O)(=O)C3(C(=O)NO)CCN(S(=O)(=O)C(C)C)CC3)cc2)c2ccccc2n1
(II) Cc1cc(COc2ccc(S(=O)(=O)C3(C(=O)NO)CCN(C(=O)C(C)C)CC3)cc2)c2ccccc2n1
Returns: the argument ( I or II ) having the larger pIC50. Mark your answer with the label of the selected entry. II

---

Target: Disintegrin and metalloproteinase domain-containing protein 17 (Homo sapiens)
Sequence (P78536 whole entry, the tested form may be a part): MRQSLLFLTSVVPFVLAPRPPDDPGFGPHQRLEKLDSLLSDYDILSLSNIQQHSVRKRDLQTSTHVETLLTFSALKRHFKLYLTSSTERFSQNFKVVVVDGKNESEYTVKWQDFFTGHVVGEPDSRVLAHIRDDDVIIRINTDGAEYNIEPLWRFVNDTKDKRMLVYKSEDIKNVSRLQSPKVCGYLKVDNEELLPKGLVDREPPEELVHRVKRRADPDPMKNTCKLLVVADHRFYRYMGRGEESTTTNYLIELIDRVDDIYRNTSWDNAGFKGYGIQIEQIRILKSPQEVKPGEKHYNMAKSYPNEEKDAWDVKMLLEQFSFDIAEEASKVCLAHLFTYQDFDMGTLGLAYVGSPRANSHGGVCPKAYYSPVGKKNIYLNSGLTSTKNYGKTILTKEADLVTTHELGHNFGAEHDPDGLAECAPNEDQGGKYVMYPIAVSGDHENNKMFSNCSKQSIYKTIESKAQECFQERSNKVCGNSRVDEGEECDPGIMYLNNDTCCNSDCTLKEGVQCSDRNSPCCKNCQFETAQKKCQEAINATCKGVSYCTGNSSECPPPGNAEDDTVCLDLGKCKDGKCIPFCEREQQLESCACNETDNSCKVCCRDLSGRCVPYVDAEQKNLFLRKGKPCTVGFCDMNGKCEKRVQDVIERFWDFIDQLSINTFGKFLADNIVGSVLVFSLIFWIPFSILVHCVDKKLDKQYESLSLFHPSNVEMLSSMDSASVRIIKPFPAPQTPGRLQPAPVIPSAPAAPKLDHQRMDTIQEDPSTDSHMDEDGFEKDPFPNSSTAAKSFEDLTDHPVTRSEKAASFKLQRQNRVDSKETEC
Assay: Inhibition of human TACE catalytic domain expressed in CHO cells by FRET assay
MEASUREMENT LABEL: IC50 (nM)

Reference set, count: 5
                         compound_structure  recorded_measurement
0  Cc1cc(COc2ccc(S(=O)(=O)C3(C(=O)NO)CCN(Cc4ccc(Cl)c(Cl)c4)CC3)cc2)c2ccccc2n1                    65
1  Cc1cc(COc2ccc(S(=O)(=O)C3(C(=O)NO)CCN(S(=O)(=O)C(C)C)CC3)cc2)c2ccccc2n1                    10
2  Cc1cc(COc2ccc(S(=O)(=O)C3(C(=O)NO)CCNCC3)cc2)c2ccccc2n1                    33
3  Cc1cc(COc2ccc(S(=O)(=O)C3(C(=O)NO)CCN(Cc4ccncc4)CC3)cc2)c2ccccc2n1                     9
4  CCN(CC)C(=O)N1CCC(C(=O)NO)(S(=O)(=O)c2ccc(OCc3cc(C)nc4ccccc34)cc2)CC1                     3

(1) Cc1cc(COc2ccc(S(=O)(=O)C3(C(=O)NO)CCN(S(C)(=O)=O)CC3)cc2)c2ccccc2n1
(2) CCNC(=O)N1CCC(C(=O)NO)(S(=O)(=O)c2ccc(OCc3cc(C)nc4ccccc34)cc2)CC1
Would you mind telling me which has the lower recorded IC50 between 1 and 2 ? Use the label to indicate which entry you chose. 1
(1: 1.2 nM, 2: 2 nM)

The origin of these recorded values is ChEMBL document CHEMBL1136975.
